These entries and their values trace back to the Kinase Knowledgebase extract (Sharma et al. 2016).

measured.on: CDK2 (human)
method.notes: Cell-Based Assay
details: rko
pIC50: −log10 of the molar value.
Below, each entry is listed alongside its reported pIC50.

Completed entries (count: 4):
| molecule | pIC50 |
| --- | --- |
| COc1cc[nH]c1/C=C1\C(=O)Nc2ccc([N+](=O)[O-])c(NC3CCC(N)C3)c21 (stereo not given) | > 7.82 |
| COc1cc[nH]c1/C=C1\C(=O)Nc2ccc([N+](=O)[O-])c(N3CCC(O)CC3)c21 | > 8.00 |
| COc1cc[nH]c1/C=C1\C(=O)Nc2ccc([N+](=O)[O-])c(N3CC[C@@H](N)C3)c21 | > 8.00 |
| COc1cc[nH]c1/C=C1\C(=O)Nc2ccc([N+](=O)[O-])c(NC3CCC(O)C3)c21 (stereo not given) | 6.47 |

# evaluate next
Problem: What does the data say about its pIC50? Entry: `COc1cc[nH]c1/C=C1\C(=O)Nc2ccc([N+](=O)[O-])c(N3CCC(N)CC3)c21`
Result: > 8.00

###

Recorded measurements of IC50, one per entry
measured.on: CDK2 (human)
method.notes: Cell-Based Assay
details: mda-mb-435

Consider the following illustrative entries.
| molecule | IC50 |
| --- | --- |
| COc1cc[nH]c1/C=C1\C(=O)Nc2ccc([N+](=O)[O-])c(NC3CCC(N)C3)c21 (stereo unspecified) | 61 nM |
| COc1cc[nH]c1/C=C1\C(=O)Nc2ccc([N+](=O)[O-])c(-n3ccnc3)c21 | > 30000 nM |
| COc1cc[nH]c1/C=C1\C(=O)Nc2ccc([N+](=O)[O-])c(N3CCC(N)CC3)c21 | < 10 nM |

Problem: Look up IC50: `COc1cc[nH]c1/C=C1\C(=O)Nc2ccc(F)cc21`
Result: > 30000 nM

Problem: IC50 lookup needed for COc1cc[nH]c1/C=C1\C(=O)Nc2ccc([N+](=O)[O-])c(NC3CCC(O)C3)c21 (stereo unspecified) , thanks.
Result: 1000 nM

Problem: Param item = `COc1cc[nH]c1/C=C1\C(=O)Nc2ccc([N+](=O)[O-])c(N3CC[C@@H](N)C3)c21` ; retrieve measured IC50.
Result: < 10 nM
